# credit: patent US7875604B2

- Test system: HIV-1 BR/93/021
- protocol: Anti-HIV efficacy in fresh human PBMCs, reverse transcriptase readout, HIV-1 BR/93/021
- Type: cell-based
- test.conditions: HIV-1 BR/93/021, PBMCs
readout.type: TI (TC50/IC50)

Request body: readout TI (TC50/IC50), system HIV-1 BR/93/021, query Fc1ccc(Nc2ncnc3ccccc23)cc1Cl [Compound 109020] . Return the value.
>3.09

State its TI (TC50/IC50) on HIV-1 BR/93/021: CCc1c(C(=O)Nc2ccccc2)c(C)nc2sc(C(N)=O)c(N)c12 [Compound 75168]
>12.52

I'm curious: which TI (TC50/IC50) was measured for Cc1cn([C@H]2C[C@H](N=[N+]=[N-])[C@@H](CO)O2)c(=O)[nH]c1=O [AZT, reference compound] tested on HIV-1 BR/93/021?
>404.86

Lab request: please report TI (TC50/IC50) under test system HIV-1 BR/93/021 for CCc1c(C)nc2sc(C(N)=O)c(N)c2c1C [Compound 103833]
>129.66
